Source listed as patent US20090011988A1.

- assayed target: recombinant human IGFBP-3 (human, UniProt P17936 28-291)
- Sequence (P17936 28-291 limits assumed): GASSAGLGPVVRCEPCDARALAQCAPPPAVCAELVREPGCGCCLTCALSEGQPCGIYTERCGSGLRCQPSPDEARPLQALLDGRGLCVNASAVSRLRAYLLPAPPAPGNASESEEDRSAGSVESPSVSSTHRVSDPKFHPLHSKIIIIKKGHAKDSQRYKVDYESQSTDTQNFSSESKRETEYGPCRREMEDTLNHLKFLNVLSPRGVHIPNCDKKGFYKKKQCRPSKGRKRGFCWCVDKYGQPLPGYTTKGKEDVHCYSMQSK
- protocol summary: competitive phage ELISA
Catalogue of IC50 values
endpoint: IC50 (nM)

[
  {
    "binder": "IGF-1 V44A displayed on phage (ligand, not shown: large carriers; small tags and cut ends, G1S-A70V background) SPETLCGAELVDALQFVCGDRGFYFNKPTGYGSSSRRAPQTGIADECCFRSCDLRRLEMYCAPLKPAKSV",
    "endpoint": "IC50",
    "measured number": 1.03
  },
  {
    "binder": "IGF-1 P2A displayed on phage (ligand, bacteriophage M13, range 249-406; G1S-A70V background) SAETLCGAELVDALQFVCGDRGFYFNKPTGYGSSSRRAPQTGIVDECCFRSCDLRRLEMYCAPLKPAKSVSGGGSGSGDFDYEKMANANKGAMTENADENALQSDAKGKLDSVATDYGAAIDGFIGDVSGLANGNGATGDFAGSNSQMAQVGDGDNSPLMNNFRQYLPSLPQSVECRPFVFSAGKPYEFSIDCDKINLFRGVFAFLLYVATFMYVFSTFANILRNKES",
    "endpoint": "IC50",
    "measured number": 0.81
  },
  {
    "binder": "IGF-1 E58A displayed on phage (ligand, not shown: large carriers; small tags and cut ends, ends and bridges not checked; also: displayed on M13 phage, fused to g3p fragment (249-406) via amber-codon residue, G1S-A70V background) SPETLCGAELVDALQFVCGDRGFYFNKPTGYGSSSRRAPQTGIVDECCFRSCDLRRLAMYCAPLKPAKSV",
    "endpoint": "IC50",
    "measured number": 1.03
  },
  {
    "binder": "IGF-1 L54A displayed on phage (ligand, not shown: large carriers; small tags and cut ends, ends and bridges not checked; also: displayed on M13 phage, fused to g3p fragment (249-406) via amber-codon residue, G1S-A70V background) SPETLCGAELVDALQFVCGDRGFYFNKPTGYGSSSRRAPQTGIVDECCFRSCDARRLEMYCAPLKPAKSV",
    "endpoint": "IC50",
    "measured number": 1.83
  },
  {
    "binder": "Ala(1-3)-IGF-1 displayed on phage (ligand, bacteriophage M13, range 249-406) AAATLCGAELVDALQFVCGDRGFYFNKPTGYGSSSRRAPQTGIVDECCFRSCDLRRLEMYCAPLKPAKSVSGGGSGSGDFDYEKMANANKGAMTENADENALQSDAKGKLDSVATDYGAAIDGFIGDVSGLANGNGATGDFAGSNSQMAQVGDGDNSPLMNNFRQYLPSLPQSVECRPFVFSAGKPYEFSIDCDKINLFRGVFAFLLYVATFMYVFSTFANILRNKES",
    "endpoint": "IC50",
    "measured number": 1.12
  },
  {
    "binder": "IGF-1 D45A displayed on phage (ligand, not shown: large carriers; small tags and cut ends, G1S-A70V background) SPETLCGAELVDALQFVCGDRGFYFNKPTGYGSSSRRAPQTGIVAECCFRSCDLRRLEMYCAPLKPAKSV",
    "endpoint": "IC50",
    "measured number": 0.69
  },
  {
    "binder": "IGF-1 R55A displayed on phage (ligand, not shown: large carriers; small tags and cut ends, not fully specified; ends and bridges not checked, G1S-A70V background) SPETLCGAELVDALQFVCGDRGFYFNKPTGYGSSSRRAPQTGIVDECCFRSCDLARLEMYCAPLKPAKSV",
    "endpoint": "IC50",
    "measured number": 0.66
  },
  {
    "binder": "IGF-1 T41A displayed on phage (ligand, not shown: large carriers; small tags and cut ends, G1S-A70V background) SPETLCGAELVDALQFVCGDRGFYFNKPTGYGSSSRRAPQAGIVDECCFRSCDLRRLEMYCAPLKPAKSV",
    "endpoint": "IC50",
    "measured number": 0.43
  },
  {
    "binder": "IGF-1 F49A displayed on phage (ligand, not shown: large carriers; small tags and cut ends, G1S-A70V background; also called IGF-F49A phage) SPETLCGAELVDALQFVCGDRGFYFNKPTGYGSSSRRAPQTGIVDECCARSCDLRRLEMYCAPLKPAKSV",
    "endpoint": "IC50",
    "measured number": 2.72
  },
  {
    "binder": "IGF-1 I43A displayed on phage (ligand, not shown: large carriers; small tags and cut ends, G1S-A70V background) SPETLCGAELVDALQFVCGDRGFYFNKPTGYGSSSRRAPQTGAVDECCFRSCDLRRLEMYCAPLKPAKSV",
    "endpoint": "IC50",
    "measured number": 1.17
  },
  {
    "binder": "IGF-1 E46A displayed on phage (ligand, not shown: large carriers; small tags and cut ends, G1S-A70V background) SPETLCGAELVDALQFVCGDRGFYFNKPTGYGSSSRRAPQTGIVDACCFRSCDLRRLEMYCAPLKPAKSV",
    "endpoint": "IC50",
    "measured number": 0.94
  },
  {
    "binder": "IGF-1 L57A displayed on phage (ligand, not shown: large carriers; small tags and cut ends, not fully specified; ends and bridges not checked, G1S-A70V background) SPETLCGAELVDALQFVCGDRGFYFNKPTGYGSSSRRAPQTGIVDECCFRSCDLRRAEMYCAPLKPAKSV",
    "endpoint": "IC50",
    "measured number": 1.78
  },
  {
    "binder": "IGF-1 S51A displayed on phage (ligand, not shown: large carriers; small tags and cut ends, not fully specified; ends and bridges not checked, G1S-A70V background) SPETLCGAELVDALQFVCGDRGFYFNKPTGYGSSSRRAPQTGIVDECCFRACDLRRLEMYCAPLKPAKSV",
    "endpoint": "IC50",
    "measured number": 0.65
  },
  {
    "binder": "IGF-1 R50A displayed on phage (ligand, not shown: large carriers; small tags and cut ends, G1S-A70V background) SPETLCGAELVDALQFVCGDRGFYFNKPTGYGSSSRRAPQTGIVDECCFASCDLRRLEMYCAPLKPAKSV",
    "endpoint": "IC50",
    "measured number": 0.64
  },
  {
    "binder": "IGF-1 D53A displayed on phage (ligand, not shown: large carriers; small tags and cut ends, ends and bridges not checked; also: displayed on M13 phage, fused to g3p fragment (249-406) via amber-codon residue, G1S-A70V background) SPETLCGAELVDALQFVCGDRGFYFNKPTGYGSSSRRAPQTGIVDECCFRSCALRRLEMYCAPLKPAKSV",
    "endpoint": "IC50",
    "measured number": 1.05
  }
]
